Experiment: Thermodynamic solubility of the compound in phosphate buffer at pH 7.2 to 7.4 after 48 hrs by UV-HPLC analysis
Assay type: physicochemical
Settings: read-out: Therm_solubility
endpointLabel: solubility thermodynamic at 48 h (µg/mL)

A: CCCOc1ccc(C[C@@H](Cc2ccccc2)C(=O)O)cc1CNC(=O)c1ccc(-c2ccncc2)cc1
B: CCCOc1ccc(C[C@@H](Cc2ccccc2)C(=O)O)cc1CNC(=O)c1ccc(-c2cccnc2)cc1
// pick larger solubility thermodynamic at 48 h from pair: A vs B API: response body contains the label of the selected item. B
(B: 69.5 µg/mL, A: 34.1 µg/mL)

A: CCCOc1ccc(C[C@@H](Cc2ccccc2)C(=O)O)cc1CNC(=O)c1ccc(-c2ccccn2)cc1
B: CCCOc1ccc(C[C@@H](Cc2ccccc2)C(=O)O)cc1CNC(=O)c1ccc(-c2cnccn2)cc1
// task: argmin of solubility thermodynamic at 48 h over [ A , B ] Choose, then provide that item's label. A
(A: 17 µg/mL, B: 32.2 µg/mL)

----------
Biological target: Peroxisome proliferator-activated receptor gamma (Homo sapiens, UniProt P37231)
Sequence (P37231 whole entry, the tested form may be a part): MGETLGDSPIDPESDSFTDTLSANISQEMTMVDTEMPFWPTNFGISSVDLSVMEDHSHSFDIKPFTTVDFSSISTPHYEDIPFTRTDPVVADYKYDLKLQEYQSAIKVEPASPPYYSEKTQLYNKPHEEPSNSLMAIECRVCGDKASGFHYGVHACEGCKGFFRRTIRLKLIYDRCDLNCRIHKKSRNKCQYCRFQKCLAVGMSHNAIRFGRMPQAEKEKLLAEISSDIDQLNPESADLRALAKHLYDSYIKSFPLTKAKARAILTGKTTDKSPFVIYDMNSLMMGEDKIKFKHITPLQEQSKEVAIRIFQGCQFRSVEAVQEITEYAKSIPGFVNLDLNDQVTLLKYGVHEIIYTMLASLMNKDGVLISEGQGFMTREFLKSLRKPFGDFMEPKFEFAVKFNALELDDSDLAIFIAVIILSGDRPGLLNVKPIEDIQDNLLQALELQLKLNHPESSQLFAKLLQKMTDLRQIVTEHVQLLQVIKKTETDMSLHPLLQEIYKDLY
Assay: Agonist activity at human PPAR-gamma1 LBD (176 to 477) transfected in african green monkey CV1 cells after 40 hrs by beta galactosidase-based luciferase reporter gene assay
pEC50: −log10 of the molar value.
endpointLabel: pEC50

Field: example entries. Status: answers known.
* CCCOc1ccc(C[C@@H](Cc2ccccc2)C(=O)O)cc1CNC(=O)c1ccc(-c2cnccn2)cc1 | 6.15
* CCCOc1ccc(C[C@@H](Cc2ccccc2)C(=O)O)cc1CNC(=O)c1ccc(-c2ccccn2)cc1 | 6.73

A: CCCOc1ccc(C[C@@H](Cc2ccccc2)C(=O)O)cc1CNC(=O)c1ccc(-c2cccs2)cc1
B: CCCOc1ccc(C[C@@H](Cc2ccccc2)C(=O)O)cc1CNC(=O)c1ccc(-c2ccncc2)cc1
C: CCCOc1ccc(C[C@@H](Cc2ccccc2)C(=O)O)cc1CNC(=O)c1ccc(-c2cncnc2)cc1
Reorder: pEC50, max to min. API: response body holds the labels in the requested order. A, B, C
(A: 7.19, B: 5.77, C: 5.51)

----------
Target: Peroxisome proliferator-activated receptor gamma (Homo sapiens)
Assay: Agonist activity at human PPAR-gamma1 LBD (176 to 477) transfected in african green monkey CV1 cells after 40 hrs by beta galactosidase-based luciferase reporter gene assay relative to rosiglitazone
Type: cell-based
Settings: CV-1
endpointLabel: Efficacy (%)

Look over these answered cases.
• CCCOc1ccc(C[C@@H](Cc2ccccc2)C(=O)O)cc1CNC(=O)c1ccc(-c2ccccc2)cc1 = 95.7
• CCCOc1ccc(C[C@@H](Cc2ccccc2)C(=O)O)cc1CNC(=O)c1ccc(-c2cccc(F)c2)cc1 = 99.7
• CCCOc1ccc(C[C@@H](Cc2ccccc2)C(=O)O)cc1CNC(=O)c1ccc(-c2cncnc2)cc1 = 82.7

a: CCCOc1ccc(C[C@@H](Cc2ccccc2)C(=O)O)cc1CNC(=O)c1ccc(-c2cccnc2)cc1
b: CCCOc1ccc(C[C@@H](Cc2ccccc2)C(=O)O)cc1CNC(=O)c1ccc(-c2cnccn2)cc1
Between these two entries, a and b , state which has the higher Efficacy. Your choice should be expressed through its label. a

I: CCCOc1ccc(C[C@@H](Cc2ccccc2)C(=O)O)cc1CNC(=O)c1ccc(-c2cccs2)cc1
II: CCCOc1ccc(C[C@@H](Cc2ccccc2)C(=O)O)cc1CNC(=O)c1ccc(-c2ccccn2)cc1
When the recorded Efficacy values are compared, which is smaller: that of I or that of II ? Your choice should be expressed through its label. I
(I: 76%, II: 113%)

----------
Target: Peroxisome proliferator-activated receptor gamma (Homo sapiens)
Assay: Agonist activity at human PPAR-gamma1 LBD (176 to 477) transfected in african green monkey CV1 cells after 40 hrs by beta galactosidase-based luciferase reporter gene assay
endpointLabel: EC50 (nM)

Worked set:
- CCCOc1ccc(C[C@@H](Cc2ccccc2)C(=O)O)cc1CNC(=O)c1ccc(-c2ccccc2C)cc1: 73.8
- CCCOc1ccc(C[C@@H](Cc2ccccc2)C(=O)O)cc1CNC(=O)c1ccc(-c2ccccc2)cc1: 85.9
- CCCOc1ccc(C[C@@H](Cc2ccccc2)C(=O)O)cc1CNC(=O)c1ccc(-c2ncccn2)cc1: 34.6
- CCCOc1ccc(C[C@@H](Cc2ccccc2)C(=O)O)cc1CNC(=O)c1ccc(-c2ccc(F)cc2)cc1: 103

a: CCCOc1ccc(C[C@@H](Cc2ccccc2)C(=O)O)cc1CNC(=O)c1ccc(-c2cccc(F)c2)cc1
b: CCCOc1ccc(C[C@@H](Cc2ccccc2)C(=O)O)cc1CNC(=O)c1ccc(-c2cccnc2)cc1
c: CCCOc1ccc(C[C@@H](Cc2ccccc2)C(=O)O)cc1CNC(=O)c1ccc(-c2ccccc2F)cc1
Task for the reader: rank each entry by its EC50, from the minimum upward. Form entry: labels listed in requested order. a, c, b
(a: 28.7 nM, c: 49.5 nM, b: 844 nM)

----------
Target: Peroxisome proliferator-activated receptor gamma (Homo sapiens)
Assay: Agonist activity at human PPAR-gamma1 LBD (176 to 477) transfected in african green monkey CV1 cells after 40 hrs by beta galactosidase-based luciferase reporter gene assay relative to rosiglitazone
Type: cell-based
Conditions: CV-1
endpointLabel: Efficacy (%)

Use these answered entries as a reference point.
* CCCOc1ccc(C[C@@H](Cc2ccccc2)C(=O)O)cc1CNC(=O)c1ccc(-c2ccccc2F)cc1 | 95
* CCCOc1ccc(C[C@@H](Cc2ccccc2)C(=O)O)cc1CNC(=O)c1ccc(-c2ncccn2)cc1 | 65
* CCCOc1ccc(C[C@@H](Cc2ccccc2)C(=O)O)cc1CNC(=O)c1ccc(-c2ccncc2)cc1 | 108

1: CCCOc1ccc(C[C@@H](Cc2ccccc2)C(=O)O)cc1CNC(=O)c1ccc(-c2ccccc2C)cc1
2: CCCOc1ccc(C[C@@H](Cc2ccccc2)C(=O)O)cc1CNC(=O)c1ccc(-c2ccc(F)cc2)cc1
1 or 2 : whose Efficacy is greater? Write the label of whichever entry you select. 2
(2: 104%, 1: 72.7%)
